Entry source: ChEMBL document CHEMBL4033749

test system: Pseudomonas aeruginosa; assay: Antibacterial activity Pseudomonas aeruginosa MTCC 1688 by agar well method; assay type: functional
Active and inactive are the calls of the source. No cut-off for these calls is given here.
readout_type: MIC

# count of solved cases: 6
CN[C@@H]1[C@H](O[C@H]2[C@H](O[C@H]3[C@H](O)[C@@H](O)[C@H](N=C(N)N)[C@@H](O)[C@@H]3N=C(N)N)O[C@@H](C)[C@]2(O)C=O)O[C@@H](CO)[C@H](O)[C@H]1O [STREPTOMYCIN]: 1.56 µg/mL
CCCCCCCCCC(=O)Nc1nnc(S[C@@H]2O[C@H](COC(C)=O)[C@H](OC(C)=O)[C@H](OC(C)=O)[C@H]2OC(C)=O)s1: inactive
CCCCCCCC/C=C\CCCCCCCCCCCC(=O)Nc1nnc(S[C@@H]2O[C@H](COC(C)=O)[C@H](OC(C)=O)[C@H](OC(C)=O)[C@H]2OC(C)=O)s1: inactive
CCCCCCCCCC(=O)Nc1nnc(S[C@@H]2O[C@H](CO)[C@H](O)[C@H](O)[C@H]2O)s1: > 150 µg/mL
C=CCCCCCCCCC(=O)Nc1nnc(S[C@@H]2O[C@H](CO)[C@H](O)[C@H](O)[C@H]2O)s1: > 150 µg/mL
CC1(C)S[C@@H]2[C@H](NC(=O)Cc3ccccc3)C(=O)N2[C@H]1C(=O)O [PENICILLIN G]: 12.5 µg/mL

(Q) Please report the recorded MIC for CCCCCCCCCCCC(=O)Nc1nnc(S[C@@H]2O[C@H](CO)[C@H](O)[C@H](O)[C@H]2O)s1 .
(A) > 150 µg/mL

(Q) Please report the recorded MIC for CCCCCCCCCCCCCCCCCC(=O)Nc1nnc(S[C@@H]2O[C@H](CO)[C@H](O)[C@H](O)[C@H]2O)s1 .
(A) > 150 µg/mL

(Q) Please report the recorded MIC for CCCCCCCC/C=C\CCCCCCCC(=O)Nc1nnc(S[C@@H]2O[C@H](CO)[C@H](O)[C@H](O)[C@H]2O)s1 .
(A) > 150 µg/mL

(Q) Please report the recorded MIC for CCCCCCCC(=O)Nc1nnc(S[C@@H]2O[C@H](COC(C)=O)[C@H](OC(C)=O)[C@H](OC(C)=O)[C@H]2OC(C)=O)s1 .
(A) inactive

(Q) Please report the recorded MIC for CCCCCCCCCCCCCCCCCC(=O)Nc1nnc(S[C@@H]2O[C@H](COC(C)=O)[C@H](OC(C)=O)[C@H](OC(C)=O)[C@H]2OC(C)=O)s1 .
(A) inactive

(Q) Please report the recorded MIC for CCCCCC(=O)Nc1nnc(S[C@@H]2O[C@H](CO)[C@H](O)[C@H](O)[C@H]2O)s1 .
(A) > 150 µg/mL

(Q) Please report the recorded MIC for CCCCCCCCCCCCCC(=O)Nc1nnc(S[C@@H]2O[C@H](CO)[C@H](O)[C@H](O)[C@H]2O)s1 .
(A) > 150 µg/mL

(Q) Please report the recorded MIC for C=CCCCCCCCCC(=O)Nc1nnc(S[C@@H]2O[C@H](COC(C)=O)[C@H](OC(C)=O)[C@H](OC(C)=O)[C@H]2OC(C)=O)s1 .
(A) inactive

###

test system: SK-OV-3; assay: Cytotoxicity against human SKOV3 cells incubated for 24 hrs by MTT asasy; assay type: functional, cell-based; conditions: Homo sapiens, SK-OV-3, 24 h; read-out: IC50
readout_type: pIC50
Conceptually, pIC50 converts a concentration in mol/L into minus its log10.

(Q) Please report the recorded pIC50 for CCCCCCCC(=O)Nc1nnc(S[C@@H]2O[C@H](CO)[C@H](O)[C@H](O)[C@H]2O)s1 .
(A) 4.25
